B1: F1*; the commonest letter at each place (parent)
chain: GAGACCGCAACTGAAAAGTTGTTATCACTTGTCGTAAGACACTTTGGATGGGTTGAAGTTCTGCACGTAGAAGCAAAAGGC

variants of: B1; test: fraction ligated after 30 min (ligated reads / total reads); higher = more ligase activity; settings: with F1*sub RNA substrate (template-directed ligation), 42 °C
Label criterion met for high-side fraction ligated (at or above 0.8) and criterion not met for low-side fraction ligated (below it).

Evaluate T23C A24T : fraction ligated at minimum 0.8?
criterion not met

Evaluate T32G A48T : fraction ligated at minimum 0.8?
criterion not met

Evaluate C26T A37G : fraction ligated at minimum 0.8?
criterion met

Evaluate A24C G46A : fraction ligated at minimum 0.8?
criterion not met

Evaluate T35C A37T : fraction ligated at minimum 0.8?
criterion met

Evaluate A24C G47T : fraction ligated at minimum 0.8?
criterion not met

Evaluate C33T A36T : fraction ligated at minimum 0.8?
criterion met

Evaluate T35C A39G : fraction ligated at minimum 0.8?
criterion met

Evaluate T29C A37T : fraction ligated at minimum 0.8?
criterion met

Evaluate A37C C40T : fraction ligated at minimum 0.8?
criterion met

Evaluate T44G A48C : fraction ligated at minimum 0.8?
criterion not met

Evaluate A27T G34T : fraction ligated at minimum 0.8?
criterion not met

Evaluate A37T T43A : fraction ligated at minimum 0.8?
criterion met

Evaluate G47C A57T : fraction ligated at minimum 0.8?
criterion not met

Evaluate A27G T29A : fraction ligated at minimum 0.8?
criterion met

Evaluate C33A A57C : fraction ligated at minimum 0.8?
criterion met

Evaluate T25G A41G : fraction ligated at minimum 0.8?
criterion not met

Evaluate G38T T49A : fraction ligated at minimum 0.8?
criterion not met

Evaluate T25C C42G : fraction ligated at minimum 0.8?
criterion not met

Evaluate G38A A57G : fraction ligated at minimum 0.8?
criterion met

Evaluate C33A G50T : fraction ligated at minimum 0.8?
criterion not met

Evaluate T35A T44C : fraction ligated at minimum 0.8?
criterion met

Evaluate A27C G50T : fraction ligated at minimum 0.8?
criterion not met

Evaluate G31A C42A : fraction ligated at minimum 0.8?
criterion met
